# Method Summary: In vitro binding affinity towards FBP aldolase from Bacillus subtilis
Measured Parameter: pKi
Answers are plain numbers, as −log10 of the molar value.

Incoming: Which measured pKi value corresponds to N/C(COP(=O)(O)O)=N/O ?
Outgoing: 5.48

* * *

Would you kindly list Ki for each of these molecules?
# Method Summary: In vitro binding affinity towards FBP aldolase from yeast
# Set-up: species or system Saccharomyces cerevisiae
Mention the unit after the number when you answer.

1) NNC(=O)COP(=O)(O)O : 340 nM

Take each entry in turn and give its Ki.
1. O=C(COP(=O)(O)O)NO [PHOSPHOGLYCOLOHYDROXAMATE]
2. N/C(COP(=O)(O)O)=N/O

Outgoing:
1: 10 nM; 2: 2300 nM

* * *

# Method Summary: In vitro binding affinity towards FBP aldolase from rabbit
# Design: species or system Oryctolagus cuniculus
Measured Parameter: pKi
One number for each entry, as −log10 of the molar value.

Incoming: Which measured pKi value corresponds to NNC(=O)COP(=O)(O)O ?
Outgoing: 3.43
